Data provenance is patent US5445951A.

System: lipase AP 12
Assay: Nucleophile screening for lipase AP 12 catalyzed deacetylation of SOA in diisopropyl ether
Format: biochemical, Aspergillus niger
Details: lipase AP 12, nucleophile 200 mM, 66 hrs

{"columns": ["Molecule", "System", "% conv, %"],
 "data": [
  ["CCCO", "lipase AP 12", 26.2],
  ["CC(C)NC(C)C", "lipase AP 12", 3.2],
  ["OCCC1CCCCN1 (stereo not shown)", "lipase AP 12", 10.4],
  ["OC1CCCCC1", "lipase AP 12", 25.0],
  ["CCO", "lipase AP 12", 26.7],
  ["OCCc1ccccc1", "lipase AP 12", 25.7],
  ["OCC1CCCCC1", "lipase AP 12", 24.8]
]}
